TESTED ON: T1, SLMAP FHA/R32A (human, UniProt Q14BN4 1-140, R32A)
T1 construct: SLMAP, human, FHA domain, residues 1-140, R32A; also called SLMAP FHA/R32A mutant; source: E. coli BL21 (DE3)-T1R, purified (glutathione-Sepharose, TEV cleavage, Superdex 75); not shown: GST, N-terminal, cleaved
T1 sequence (looked up): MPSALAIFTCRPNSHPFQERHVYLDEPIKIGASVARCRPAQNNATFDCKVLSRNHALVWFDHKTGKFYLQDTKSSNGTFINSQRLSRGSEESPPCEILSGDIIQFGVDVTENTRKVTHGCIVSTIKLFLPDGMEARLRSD
TEST PROTOCOL: ITC; MicroCal iTC200, 20 °C; 50 µM protein in the cell titrated with 500 µM phospho-peptide; 20 mM Tris pH 8.0, 50 mM NaCl (5% DMSO for pT325-MST2 320-329); A + B <-> AB model
CONDITION CONTEXT: both partners purified
Non-standard residues stand in square brackets, D forms with d. No end group written: not given here. pT = C[C@@H](OP(=O)(O)O)[C@H](N)C(=O)O
EXPERIMENTAL READOUT: pKd
Please keep in mind that pKd is minus log10 of the molar concentration; only the number is needed.

If you can, please state the reported pKd value of EEEDG[pT]MKRN (MST2, human, linker residues 373-382; also called pMST2; source: synthetic peptide) [pT378-MST2^373-382] . 4.73
